Numbers sourced from patent US7514469B2.

molecular target: Ovine COX-1 (Ovis aries)
Sequence (P05979 25-600): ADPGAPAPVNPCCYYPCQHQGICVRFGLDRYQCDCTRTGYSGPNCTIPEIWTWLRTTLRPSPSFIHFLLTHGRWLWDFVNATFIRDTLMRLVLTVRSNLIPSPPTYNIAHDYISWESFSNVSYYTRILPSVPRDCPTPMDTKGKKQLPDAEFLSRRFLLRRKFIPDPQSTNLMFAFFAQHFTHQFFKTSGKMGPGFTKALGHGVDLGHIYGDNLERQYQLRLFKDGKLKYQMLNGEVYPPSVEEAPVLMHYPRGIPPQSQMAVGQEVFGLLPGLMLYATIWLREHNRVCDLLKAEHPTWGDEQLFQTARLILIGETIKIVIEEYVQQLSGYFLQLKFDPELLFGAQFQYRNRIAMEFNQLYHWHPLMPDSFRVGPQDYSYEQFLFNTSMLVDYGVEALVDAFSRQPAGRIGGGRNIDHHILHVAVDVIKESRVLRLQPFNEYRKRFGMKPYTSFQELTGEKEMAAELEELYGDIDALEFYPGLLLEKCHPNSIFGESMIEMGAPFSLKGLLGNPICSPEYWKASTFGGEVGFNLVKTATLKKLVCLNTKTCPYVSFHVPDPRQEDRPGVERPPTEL
Measured property: pIC50
One number for each entry, as −log10 of the molar value.

Assay Ovine COX-1 (Ovis aries), sample Oc1cc(O)c2c(c1)O[C@H](c1ccc(O)c(O)c1)[C@H](O)C2 [epicatechin] , pIC50 read: 4.62

* * *

For each record, write down the corresponding inhibition at 20 µg/mL.
biological target: UniProt P05979; assay: COX-1 peroxidase assay (Example 2 method); type: biochemical; conditions: 20 μg/mL; read-out: Inhibition of COX-1
Give bare numbers, in %.

Compound	inhibition at 20 µg/mL, %
COc1cc2oc(-c3ccccc3)cc(=O)c2c(O)c1O [5,6-Dihydroxy-7-methoxyflavone]	75
O=C(O)[C@H]1O[C@@H](Oc2cc3oc(-c4ccccc4)cc(=O)c3c(O)c2O)[C@H](O)[C@@H](O)[C@@H]1O	95
O=c1cc(-c2ccccc2)oc2c(O)c(O)ccc12 [7,8-Dihydroxyflavone]	74

Turning to the following compound.
The compound O=c1cc(-c2ccccc2)oc2cc(O)c(O)c(O)c12 showed inhibition at 20 µg/mL equal to 107

* * *

Target: recombinant ovine COX-2 (Ovis aries, UniProt P79208)
Sequence (P79208 17-603): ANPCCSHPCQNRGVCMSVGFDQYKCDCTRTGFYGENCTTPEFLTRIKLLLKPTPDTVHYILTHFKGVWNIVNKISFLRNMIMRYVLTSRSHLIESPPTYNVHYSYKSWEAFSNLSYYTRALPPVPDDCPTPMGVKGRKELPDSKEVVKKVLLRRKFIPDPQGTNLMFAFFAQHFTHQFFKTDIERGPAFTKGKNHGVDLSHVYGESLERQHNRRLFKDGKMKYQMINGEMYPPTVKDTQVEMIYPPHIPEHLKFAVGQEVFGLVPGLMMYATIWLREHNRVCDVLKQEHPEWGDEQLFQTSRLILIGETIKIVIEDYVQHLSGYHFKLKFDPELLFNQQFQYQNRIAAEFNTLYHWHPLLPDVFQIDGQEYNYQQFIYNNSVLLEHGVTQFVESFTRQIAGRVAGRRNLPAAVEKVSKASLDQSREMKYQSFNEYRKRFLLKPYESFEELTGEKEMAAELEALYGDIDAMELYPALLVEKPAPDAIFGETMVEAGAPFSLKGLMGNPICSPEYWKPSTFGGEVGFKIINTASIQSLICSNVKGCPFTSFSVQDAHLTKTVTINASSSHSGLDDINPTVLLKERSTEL
Test: COX-2 peroxidase activity IC50 assay with TMPD (Example 6)
Measured property: pIC50
Give bare numbers, as −log10 of the molar value.

So for Oc1cc(O)c2c(c1)O[C@H](c1ccc(O)c(O)c1)[C@H](O)C2 [epicatechin] , the logged pIC50 turned out to be 4.16
